Data origin, for the record: the supplement of paper PMC6555819

Test system: THRa homodimer (NR concentration 90 nM)
Test: PBM binding z-score (relative to random genomic background probes); higher = stronger binding; sequences stand for … in GC…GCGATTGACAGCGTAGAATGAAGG
parameter measured: PBM binding z-score
Returns: the value as a bare number; no unit string appended.

The sequence listed as TAGCCTAGGTCACGGGCCAGTATACCACGCGAAC shows PBM binding z-score equal to 1.84

---

Test system: RARa homodimer (NR concentration 270 nM)
Experiment: PBM binding z-score (relative to random genomic background probes); higher = stronger binding; sequences stand for … in GC…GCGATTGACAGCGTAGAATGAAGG
parameter measured: PBM binding z-score
Give the value as a plain number.

Answered examples (3):
# construct sequence, PBM binding z-score
rows = [
    ("AGTCAAAGTTCAGCACGAGGTAACGTAAAGCACG", 1.12),
    ("CGAACTAGGTCAAACGACAGTGAAAGGCGACGTA", 0.265),
    ("GATACACGGTCAAGGCCAGAGTACGCGTATTGAT", -0.63),
]

Recorded PBM binding z-score (sequence ACTCGGAGGACAGAGGTCAGAGCTACGCCAGTGA ): 0.568
